B1: library; numbered along this chain (parent)
chain: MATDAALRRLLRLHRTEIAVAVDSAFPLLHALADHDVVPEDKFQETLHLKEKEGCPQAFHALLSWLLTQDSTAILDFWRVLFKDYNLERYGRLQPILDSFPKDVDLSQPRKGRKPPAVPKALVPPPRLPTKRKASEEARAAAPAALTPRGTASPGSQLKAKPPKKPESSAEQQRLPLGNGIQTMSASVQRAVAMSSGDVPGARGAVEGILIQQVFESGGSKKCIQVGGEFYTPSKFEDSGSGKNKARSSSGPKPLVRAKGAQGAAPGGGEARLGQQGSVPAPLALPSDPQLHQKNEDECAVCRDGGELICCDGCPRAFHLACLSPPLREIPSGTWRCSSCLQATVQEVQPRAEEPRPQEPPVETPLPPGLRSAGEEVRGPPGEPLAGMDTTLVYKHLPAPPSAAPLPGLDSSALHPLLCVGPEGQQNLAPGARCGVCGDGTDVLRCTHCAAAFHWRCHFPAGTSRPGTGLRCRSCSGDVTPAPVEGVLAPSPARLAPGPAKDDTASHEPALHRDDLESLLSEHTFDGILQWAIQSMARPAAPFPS

Variants of: B1
test_name: AIRE transcriptional activation functional score (insulin promoter-GFP; nonsense median 0, synonymous median 1) (normalised score); higher = higher AIRE activity (more reporter activation)
experimental_setup: with insulin promoter-GFP reporter in HEK293
Quick rule: AIRE transcriptional activation functional score of at least 0.8 means rule met, below that means rule not met.

Worked set:
variant_notation: P109D
qualitative_label: rule met

variant_notation: D297E
qualitative_label: rule met

variant_notation: V301D
qualitative_label: rule not met

variant_notation: P416I
qualitative_label: rule not met

variant_notation: G274S
qualitative_label: rule met

variant_notation: H512D
qualitative_label: rule met

variant_notation: T468M
qualitative_label: rule met

variant_notation: A352R
qualitative_label: rule met

variant_notation: E307W
qualitative_label: rule not met

variant_notation: L175A
qualitative_label: rule not met

Now examine the next entry.
Lookup: In plain terms: is recorded AIRE transcriptional activation functional score at least 0.8 for `T344S` ?
Found: rule met
